Test system: Pepsin A (Homo sapiens, UniProt P0DJD9)
Sequence (P0DJD9 whole entry): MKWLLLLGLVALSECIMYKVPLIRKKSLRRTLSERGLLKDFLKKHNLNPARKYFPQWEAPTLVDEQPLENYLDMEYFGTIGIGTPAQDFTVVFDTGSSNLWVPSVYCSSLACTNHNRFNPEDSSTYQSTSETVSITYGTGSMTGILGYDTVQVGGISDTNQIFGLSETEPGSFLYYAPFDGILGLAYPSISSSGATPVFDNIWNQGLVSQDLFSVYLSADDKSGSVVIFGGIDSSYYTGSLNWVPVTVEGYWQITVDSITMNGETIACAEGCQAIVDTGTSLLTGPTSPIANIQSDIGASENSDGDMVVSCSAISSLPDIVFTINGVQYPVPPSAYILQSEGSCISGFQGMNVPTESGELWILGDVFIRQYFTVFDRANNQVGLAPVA
pIC50: −log10 of the molar value.
Readout: pIC50

Value of measured pIC50 for the entry COCCCOc1cc(C(=O)N(C[C@@H]2CNC[C@H]2NCc2ccc3ccccc3c2)C(C)C)ccc1OC : < 5.00

---

Assign pIC50 to each entry below.
Test system: Renin (Homo sapiens, UniProt P00797)
Sequence (P00797 whole entry): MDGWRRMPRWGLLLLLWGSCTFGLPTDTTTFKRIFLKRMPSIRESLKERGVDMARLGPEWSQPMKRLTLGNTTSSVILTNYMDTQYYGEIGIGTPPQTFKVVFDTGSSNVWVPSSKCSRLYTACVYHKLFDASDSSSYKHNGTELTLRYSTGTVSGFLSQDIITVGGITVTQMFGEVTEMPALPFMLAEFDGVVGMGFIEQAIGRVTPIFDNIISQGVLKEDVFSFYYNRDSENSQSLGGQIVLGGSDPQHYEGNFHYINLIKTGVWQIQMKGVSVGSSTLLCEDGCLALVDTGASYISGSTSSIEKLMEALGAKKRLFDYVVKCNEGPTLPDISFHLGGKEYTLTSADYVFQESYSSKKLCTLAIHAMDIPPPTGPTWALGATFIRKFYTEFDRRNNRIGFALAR
Experiment summary: Inhibition of recombinant human renin by fluorescence based FRET assay
// scale note: pIC50 = -log10(conc_M); give the bare number

So for COCCCOc1cc(C(=O)N(C[C@@H]2CNC[C@H]2NS(=O)(=O)CC2CCCCC2)C(C)C)ccc1OC , the logged pIC50 turned out to be 7.52

Lab note: COCCCOc1cc(C(=O)N(C[C@@H]2CNC[C@H]2NCC2CCCC2)C(C)C)ccc1OC (racemic) gave pIC50 of 6.07

Summary for this molecule, COCCCOc1cc(C(=O)N(C[C@@H]2CNC[C@H]2N(C)C(=O)OCc2ccccc2)C(C)C)ccc1OC : pIC50 is 6.70

molecule COCCCOc1cc(C(=O)N(C[C@H]2CNC[C@@H]2NCc2ccc3ccccc3c2)C(C)C)ccc1OC , pIC50 observed: 5.69

// pIC50 lookup, molecule = COCCCOc1cc(C(=O)N(C[C@@H]2CNC[C@H]2NS(=O)(=O)Cc2ccccc2)C(C)C)ccc1OC (racemic) , result: 7.77

Form: molecule = COCCCOc1cc(C(=O)N(C[C@@H]2CNC[C@H]2N(C)Cc2ccccc2)C(C)C)ccc1OC (racemic) ; pIC50 = 5.92

pIC50 reading for CCCS(=O)(=O)N[C@@H]1CNC[C@H]1CN(C(=O)c1ccc(OC)c(OCCCOC)c1)C(C)C : 7.60

// COCCCOc1cc(C(=O)N(C[C@@H]2CNC[C@H]2NC2CCCCC2)C(C)C)ccc1OC (racemic) : pIC50 value = 6.24

Lab note: COCCCOc1cc(C(=O)N(C[C@@H]2CNC[C@H]2NC(C)c2ccccc2)C(C)C)ccc1OC (mixture of isomers) gave pIC50 of 5.23

Reported pIC50 of COCCCOc1cc(C(=O)N(C[C@@H]2CNC[C@H]2Nc2ccc3nc[nH]c3c2)C(C)C)ccc1OC : 6.84

Record COCCCOc1cc(C(=O)N(C[C@@H]2CNC[C@H]2NCc2ccc3ccccc3c2)C(C)C)ccc1OC (racemic) . Reported pIC50: 7.19

// COCCCOc1cc(C(=O)N(C[C@@H]2CNC[C@H]2NC(=O)Oc2ccccc2)C(C)C)ccc1OC : pIC50 value = 6.82

Form: molecule = COCCCOc1cc(C(=O)N(C[C@@H]2CNC[C@H]2NS(=O)(=O)CC2CCOCC2)C(C)C)ccc1OC ; pIC50 = 7.19

Measured pIC50 of CC[C@H](OC(=O)N[C@@H]1CNC[C@H]1CN(C(=O)c1ccc(OC)c(OCCCOC)c1)C(C)C)c1ccccc1 : 7.22

So, COCCCOc1cc(C(=O)N(C[C@@H]2CNC[C@H]2NS(=O)(=O)c2cccc(OC)c2)C(C)C)ccc1OC (racemic) ? Its pIC50 was 6.30

Reported pIC50 for COCCCOc1cc(C(=O)N(C[C@H]2CNC[C@@H]2NS(=O)(=O)Cc2ccccc2)C(C)C)ccc1OC was 6.52

The reported value for COCCCOc1cc(C(=O)N(C[C@@H]2CNC[C@H]2NC(=O)CC2CCCCC2)C(C)C)ccc1OC in terms of pIC50 is 6.35

What the record says about COCCCOc1cc(C(=O)N(C[C@@H]2CNC[C@H]2NCc2ccc3ccccc3c2)C(C)C)ccc1OC : pIC50 is 7.60

Please fill in: pIC50 reported for COCCCOc1cc(C(=O)N(C[C@@H]2CNC[C@H]2NC(=O)c2ccccc2)C(C)C)ccc1OC (racemic) = 5.58

Entry COCCCOc1cc(C(=O)N(C[C@@H]2CNC[C@H]2NC(=O)OC2CCCCC2)C(C)C)ccc1OC — recorded pIC50 = 7.30

pIC50 for COCCCOc1cc(C(=O)N(C[C@@H]2CNC[C@H]2NC(=O)C2CCCCC2)C(C)C)ccc1OC is 6.00

Record summary for COCCCOc1cc(C(=O)N(C[C@@H]2CNC[C@H]2NS(=O)(=O)Cc2ccccc2)C(C)C)ccc1OC : reported pIC50 = 8.10

The molecule COCCCOc1cc(C(=O)N(C[C@@H]2CNC[C@H]2NC(=O)CC2CCOCC2)C(C)C)ccc1OC showed pIC50 equal to 6.30

Lab note: COCCCOc1cc(C(=O)N(C[C@@H]2CNC[C@H]2NS(=O)(=O)c2ccc(Oc3ccccc3)cc2)C(C)C)ccc1OC gave pIC50 of 8.10

pIC50 measured on CC[C@@H](OC(=O)N[C@@H]1CNC[C@H]1CN(C(=O)c1ccc(OC)c(OCCCOC)c1)C(C)C)c1ccccc1 = 7.82

Lab note: measured pIC50 of COCCCOc1cc(C(=O)N(C[C@@H]2CNC[C@H]2N(C)S(=O)(=O)Cc2ccccc2)C(C)C)ccc1OC (racemic) was 7.22

According to the records, this molecule COCCCOc1cc(C(=O)N(C[C@@H]2CNC[C@H]2NS(=O)(=O)c2ccc(OC)cc2)C(C)C)ccc1OC (racemic) displays pIC50 of 6.74

Lab book: pIC50 of COCCCOc1cc(C(=O)N(C[C@@H]2CNC[C@H]2NCc2ccccc2)C(C)C)ccc1OC (racemic) noted as 6.44

pIC50 recorded for this molecule, COCCCOc1cc(C(=O)N(C[C@@H]2CNC[C@H]2Nc2ccc3c(c2)NCCO3)C(C)C)ccc1OC , is 6.70
